- Test target: benzodiazepine receptors
- Procedure text: in vitro displacement of specific ^3 H flunitrazepam binding, cerebral membrane suspension
- Condition summary: ^3 H flunitrazepam 1.0 nM, 0° C.; rat cerebrum, pH 7.1; concentration effecting 50% displacement of specific binding
Kindly state IC50 (in vitro), displacement activity for each of the entries shown.
Answer in ng/mL, number only, no unit symbol.

Exercise: Respond only with IC50 (in vitro), displacement activity recorded for C=CCN(CC=C)C(=O)c1ccc2[nH]c3cnc(C(=O)OCC)c(C)c3c2c1 [CO2 Et, CH3, CON(Allyl)2]
Solution: 0.4

Exercise: Respond only with IC50 (in vitro), displacement activity recorded for CCOC(=O)c1ncc2[nH]c3ccc(C(=O)N(C)C)cc3c2c1COC [CO2 Et, CH2 OCH3, CON(CH3)2]
Solution: 1.3

Exercise: Respond only with IC50 (in vitro), displacement activity recorded for CCCOC(=O)c1ccc2[nH]c3cnc(C(=O)OCC)c(C)c3c2c1 [CO2 Et, Me, COOC3 H7]
Solution: 0.5

Exercise: Respond only with IC50 (in vitro), displacement activity recorded for CCOC(=O)c1cc2c(cn1)[nH]c1ccc(C(=O)N3CCCCC3)cc12 [CO2 Et, H, drawing 10]
Solution: 0.6

Exercise: Respond only with IC50 (in vitro), displacement activity recorded for CCc1noc(-c2cc3c(cn2)[nH]c2ccc(C(=O)N4CCCCC4)cc23)n1 [drawing 11, H, drawing 12]
Solution: 0.6
